# STUDY SYSTEM: Grb2 SH2 (UniProt P62993)
# Sequence (P62993 whole entry, looked up, the tested form may be a part): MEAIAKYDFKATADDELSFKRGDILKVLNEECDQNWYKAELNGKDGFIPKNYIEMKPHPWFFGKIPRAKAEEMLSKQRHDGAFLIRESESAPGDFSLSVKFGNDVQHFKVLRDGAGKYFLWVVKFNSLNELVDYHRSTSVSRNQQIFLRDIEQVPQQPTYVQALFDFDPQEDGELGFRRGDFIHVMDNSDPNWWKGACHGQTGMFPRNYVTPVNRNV
# ASSAY INFO: SH2 binding enrichment of the phosphorylated peptide, bacterial display (enrichment ratio); higher = better substrate or ligand; peptides without Tyr show the background;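 note: peptide library displayed on the E. coli surface as eCPX fusions, selected cells deep-sequenced, score is each peptide's frequency after selection divided by its frequency in the input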
MEASUREMENT LABEL: SH2 binding enrichment

IITDFYVDMKF [MPP4_Y567_V562I_YF] :: 0.799
QRRYLYYYSYL [PTEN_Y176_V175L] :: 0.776
LARNMYDKEYY [MET_Y1230_D1228N] :: 0.843
FVPSFYHAFSG [ACTN4_Y265_S262P_YF] :: 0.993
FFRCHYPLTTL [TNS4_Y644_R642C] :: 0.907
FGGRDYSLDEF [MYOF_Y1705_YF] :: 0.782
RGRSTYYWPRP [GAGE12J_Y9] :: 0.8
